Assay: Pharmacokinetics after single dose oral administration in rats
Assay type: in vivo, male Sprague Dawley rats
Conditions: male, Sprague Dawley, rat, plasma, po, 50 mg/kg, ivacaftor 50 mg/kg, Crystalline Suspension (0.25% Methyl Cellulose in water)
VALUE_KIND: half-life (h)
Give the quantity in h, number only.

Q: Specify reported half-life for the compound shown: CC(C)(C)c1cc(C(C)(C)C)c(NC(=O)c2c[nH]c3ccccc3c2=O)cc1O [ivacaftor, reference compound]
Ans: 20

====

Test: Pharmacokinetics after single dose oral administration in rats
Format: in vivo, male Sprague Dawley rats
Settings: male, Sprague Dawley, plasma, rat, ivacaftor 50 mg/kg, Crystalline Suspension (0.25% Methyl Cellulose in water)
VALUE_KIND: Cmax (ng/mL)
Give the quantity in ng/mL, number only.

Q: Specify reported Cmax for the compound shown: CC(C)(C)c1cc(C(C)(C)C)c(NC(=O)c2c[nH]c3ccccc3c2=O)cc1O [ivacaftor, reference compound]
Ans: 586
